- target_entity: UniProtKB P30874
- Sequence (P30874 whole entry): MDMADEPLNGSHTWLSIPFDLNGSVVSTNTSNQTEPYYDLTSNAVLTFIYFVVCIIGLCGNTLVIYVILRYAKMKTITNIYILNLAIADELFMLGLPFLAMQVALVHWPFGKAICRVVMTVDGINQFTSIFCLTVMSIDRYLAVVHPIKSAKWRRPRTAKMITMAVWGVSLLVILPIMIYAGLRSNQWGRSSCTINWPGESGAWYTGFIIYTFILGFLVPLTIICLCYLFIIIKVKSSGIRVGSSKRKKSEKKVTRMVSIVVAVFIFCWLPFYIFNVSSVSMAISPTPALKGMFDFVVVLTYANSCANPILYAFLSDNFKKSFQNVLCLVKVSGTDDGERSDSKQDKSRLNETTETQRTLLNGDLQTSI
- method_description: Inhibition of SRIF binding to SST-R2 (species not stated)
- assay_conditions: read-out: IC50 Screen SRIF Inhibited (%) 0.1 nM
measurement_kind: inhibition at 0.0001 µM (%)
Numeric answer only, unit % assumed.

The following compounds have reported results that may help.
C[C@@H](O)[C@@H]1NC(=O)[C@H](CCCCN)NC(=O)[C@@H](Cc2c[nH]c3ccccc23)NC(=O)[C@H](Cc2c[nH]c3ccccc23)NC(=O)[C@H](Cc2ccccc2)NC(=O)[C@@H](NC(=O)CN(CCN(CCN(CC(=O)O)CC(=O)O)CC(=O)O)CC(=O)O)CCNC(=O)CCCN(CC(N)=O)C(=O)[C@H](Cc2ccccc2)NC1=O	10
C[C@@H](O)[C@@H]1NC(=O)[C@H](CCCCN)NC(=O)[C@@H](Cc2c[nH]c3ccccc23)NC(=O)[C@H](Cc2c[nH]c3ccccc23)NC(=O)[C@H](Cc2ccccc2)NC(=O)[C@@H](NC(=O)CCCNC(=O)CN(CCN(CCN(CC(=O)O)CC(=O)O)CC(=O)O)CC(=O)O)CCNC(=O)CCCN(CC(N)=O)C(=O)[C@H](Cc2ccccc2)NC1=O	-4.8
C[C@@H](O)[C@@H]1NC(=O)[C@H](CCCCN)NC(=O)[C@@H](Cc2c[nH]c3ccccc23)NC(=O)[C@H](Cc2c[nH]c3ccccc23)NC(=O)[C@H](Cc2ccccc2)NC(=O)[C@@H](NC(=O)CNC(=O)CN(CCN(CCN(CC(=O)O)CC(=O)O)CC(=O)O)CC(=O)O)CCNC(=O)CCCN(CC(N)=O)C(=O)[C@H](Cc2ccccc2)NC1=O	-0.67

Now look at this one.
Problem: Would you mind telling me what inhibition at 0.0001 µM value was observed for `C[C@@H](O)[C@@H]1NC(=O)[C@H](CCCCN)NC(=O)[C@@H](Cc2c[nH]c3ccccc23)NC(=O)[C@H](Cc2c[nH]c3ccccc23)NC(=O)[C@H](Cc2ccccc2)NC(=O)[C@@H](NC(=O)CCNC(=O)CN(CCN(CCN(CC(=O)O)CC(=O)O)CC(=O)O)CC(=O)O)CCNC(=O)CCCN(CC(N)=O)C(=O)[C@H](Cc2ccccc2)NC1=O` ?
Solution: 3

Hey, just so you know, these numbers are from patent US20040102364A1.
